Items are presented alongside their recorded pIC50.
- target_of_assay: UniProt P43490
- assay: NAMPT enzyme assay (TR-FRET/HTRF, BodiPY ligand, anti 6His-Tb)
- Type: binding
- stated_conditions: NAMPT IC50 range class; read-out: IC50
pIC50: −log10 of the molar value.
test_readout: pIC50

> print(dat)
                                   compound    data.value
1  Cc1cncc(-c2nc3cc(C(=O)NCCCc4ncc[nH]4)ccc3nc2-c2ccc(F)cc2)c1 [Compound I-394]  6.30 to 7.00
2  O=C(NCCCc1ncc[nH]1)c1ccc2nc(OCCO)c(-c3ccc(F)cc3)nc2c1 [Compound I-322]        > 7.00
3  CS(=O)(=O)N1CCN(c2nc3cc(C(=O)NCCCn4ccnc4)ccc3nc2-c2ccccc2)CC1 [Compound I-129]  6.30 to 7.00
4  Cc1nccn1CCCNC(=O)c1ccc2nc(-c3ccc(F)cc3)c(-c3ccc(F)cc3)nc2c1 [Compound I-57]        > 7.00

###

- target_of_assay: hNAMPT protein (Homo sapiens (Human), UniProt P43490)
- Sequence (P43490 whole entry): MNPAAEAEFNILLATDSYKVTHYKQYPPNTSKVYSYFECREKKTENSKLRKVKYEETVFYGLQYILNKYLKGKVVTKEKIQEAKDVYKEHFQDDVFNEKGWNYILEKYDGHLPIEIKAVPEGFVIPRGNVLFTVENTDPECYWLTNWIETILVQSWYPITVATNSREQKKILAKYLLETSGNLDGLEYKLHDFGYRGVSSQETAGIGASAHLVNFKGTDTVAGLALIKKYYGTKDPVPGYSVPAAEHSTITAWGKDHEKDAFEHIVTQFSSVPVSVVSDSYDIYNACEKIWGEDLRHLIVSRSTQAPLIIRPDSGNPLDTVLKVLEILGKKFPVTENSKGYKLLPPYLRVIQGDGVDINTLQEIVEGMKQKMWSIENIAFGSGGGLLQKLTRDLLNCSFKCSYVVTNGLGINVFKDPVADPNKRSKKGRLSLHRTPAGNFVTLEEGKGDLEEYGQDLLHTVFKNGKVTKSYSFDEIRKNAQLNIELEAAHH
- assay: NAMPT enzyme assay (TR-FRET/HTRF, BodiPY ligand, anti 6His-Tb)
- Type: binding
- stated_conditions: NAMPT IC50 range class; read-out: IC50
pIC50: −log10 of the molar value.
test_readout: pIC50

> print(dat)
                                   molecule                           target.of.assay    data.value
1  Cn1cc2c(n1)OCCN(C(=O)c1ccc3nc(-c4ccc(F)cc4)c(-c4ccc(F)cc4)nc3c1)C2  hNAMPT protein (Homo sapiens (Human), UniProt P43490)  5.00 to 5.70
2  CS(=O)(=O)Nc1cccc(-c2nc3cc(C(=O)NCCCn4ccnc4)ccc3nc2-c2ccccc2)c1  hNAMPT protein (Homo sapiens (Human), UniProt P43490)  6.30 to 7.00
3  O=C(NCCCc1ncc[nH]1)c1ccc2nc(OCC3CC(F)(F)C3)c(-c3ccc(F)cc3)nc2c1  hNAMPT protein (Homo sapiens (Human), UniProt P43490)        > 7.00
4  O=C(c1ccc2nc(-c3ccc(F)cc3)c(-c3ccc(F)cc3)nc2c1)N1CCc2cn[nH]c2C1  hNAMPT protein (Homo sapiens (Human), UniProt P43490)  5.00 to 5.70
5  CC(=O)N1CCN(c2nc3cc(C(=O)NCCCn4ccnc4)ccc3nc2-c2ccccc2)CC1  hNAMPT protein (Homo sapiens (Human), UniProt P43490)  6.30 to 7.00
6  CN1CCCCC1COc1nc2ccc(C(=O)NCCCc3ncc[nH]3)cc2nc1-c1ccc(F)cc1 (stereo not shown)  hNAMPT protein (Homo sapiens (Human), UniProt P43490)        > 7.00
7  O=C(NCc1ccc2cn[nH]c2c1)c1ccc2nc(N3CCCCC3)c(-c3ccc(F)cc3)nc2c1  hNAMPT protein (Homo sapiens (Human), UniProt P43490)  6.30 to 7.00

###

- target_of_assay: hNAMPT protein (Homo sapiens (Human), UniProt P43490)
- assay: NAMPT enzyme assay (TR-FRET/HTRF, BodiPY ligand, anti 6His-Tb)
- Type: binding
- stated_conditions: compound concentration 1 μM; read-out: Percent Inhibition
test_readout: inhibition at 1 µM (%)

> print(dat)
                                   compound  reading.unit  censoring.operator  data.value
1  O=C(NCCCn1ccnc1)c1ccc2nc(-c3ccccc3)c(-c3ccc4nccn4c3)nc2c1             %                   =          75
2  NC(=O)c1cn2c(n1)CN(C(=O)c1ccc3nc(-c4ccc(F)cc4)c(-c4ccc(F)cc4)nc3c1)CC2             %                   =          31
3  O=C(NCCn1nnnc1S)c1ccc2nc(-c3ccc(F)cc3)c(-c3ccc(F)cc3)nc2c1             %                   =          41
4  CCc1nc2ccc(C(=O)NCCCc3ncc[nH]3)cc2nc1-c1ccc(F)cc1             %                   =          73
5  O=C(c1ccc2nc(-c3ccc(F)cc3)c(-c3ccc(F)cc3)nc2c1)N1CCC(c2cnccn2)C1 (stereo not shown)             %                   =          33
6  Cn1cc2c(n1)CN(c1nc3ccc(C(=O)NCCCn4ccnc4)cc3nc1-c1ccccc1)CC2             %                   =          85
7  O=C(NCCOc1cccnc1)c1ccc2nc(N3CCC(N4CCOCC4)CC3)c(-c3ccc(F)cc3)nc2c1             %                   >          99

###

- target_of_assay: hNAMPT protein (Homo sapiens (Human))
- assay: NAMPT enzyme assay (TR-FRET/HTRF, BodiPY ligand, anti 6His-Tb)
- Type: binding
- stated_conditions: compound concentration 1 μM; read-out: Percent Inhibition
- Source text: As discussed above, the invention provides compounds that are useful as inhibitors of the enzyme NAMPT. The NAMPT inhibition of a compound of the invention can be measured using a variety of methods known in the art. […] The TR-FRET signal can be measured using a high throughput microplate reader (e.g., Pherastar). […] The percent inhibition value at a single concentration of compound of the invention can be calculated relative to a control treated sample. […]
Items are presented alongside their recorded inhibition at 1 µM.
test_readout: inhibition at 1 µM (%)

> print(dat)
                                   compound  data.value
1  O=C(NCCCn1ccnc1)c1ccc2nc(N3CCC4(CC3)OCCO4)c(-c3ccccc3)nc2c1          99
2  CC(C)(C)OCc1nc2ccc(C(=O)NCCCc3ncc[nH]3)cc2nc1-c1ccc(F)cc1          73
3  C[C@@H]1CN(c2nc3ccc(C(=O)NCCCn4ccnc4)cc3nc2-c2ccccc2)C[C@H](C)O1         100
4  O=C(c1ccc2nc(-c3ccc(F)cc3)c(-c3ccc(F)cc3)nc2c1)N1CC(c2ccccn2)C1          66
5  O=C(NCCCn1ccnc1)c1ccc2nc(-c3ccc(Cl)cc3)c(-c3ccccc3)nc2c1          50
6  Cn1cncc1CCNC(=O)c1ccc2nc(N3CCCCC3)c(-c3ccc(F)cc3)nc2c1          93
7  O=C(NCCCc1ncc[nH]1)c1ccc2nc(OCC3CCOC3)c(-c3ccc(F)cc3)nc2c1 (centres unmarked)         100
8  O=C(NCCCn1ccnc1)c1ccc2nc(-c3ccccc3)c(-c3cccs3)nc2c1          99

###

Items are presented alongside their recorded IC50.
- target_of_assay: hNAMPT protein (Homo sapiens (Human), UniProt P43490)
- assay: NAMPT enzyme assay (TR-FRET/HTRF, BodiPY ligand, anti 6His-Tb)
- Format: binding
- stated_conditions: NAMPT inhibition, IC50 range class; read-out: IC50
- From the text: As discussed above, the invention provides compounds that are useful as inhibitors of the enzyme NAMPT. The NAMPT inhibition of a compound of the invention can be measured using a variety of methods known in the art. […] The TR-FRET signal can be measured using a high throughput microplate reader (e.g., Pherastar). […] The percent inhibition value at a single concentration of compound of the invention can be calculated relative to a control treated sample. […]
test_readout: IC50

> print(dat)
                                    compound      data.value
 1  COC1CCN(c2nc3ccc(C(=O)NCCCc4ncc[nH]4)cc3nc2-c2ccc(F)cc2)C1 (centres unmarked)        < 100 nM
 2  N#Cc1cccc(-c2nc3cc(C(=O)NCCCc4ncc[nH]4)ccc3nc2-c2ccc(F)cc2)c1   100 to 500 nM
 3  CCOc1cc(-c2nc3cc(C(=O)NCCCc4ncc[nH]4)ccc3nc2-c2ccc(F)cc2)c(F)cn1   100 to 500 nM
 4  Cc1ccc(C(F)(F)F)cc1-c1nc2cc(C(=O)NCCCc3ncc[nH]3)ccc2nc1-c1ccc(F)cc1        < 100 nM
 5  O=C(NCCCc1ncc[nH]1)c1ccc2nc(O[C@H]3CCOC3)c(-c3ccc(F)cc3)nc2c1        < 100 nM
 6  O=C(NCCCc1ncc[nH]1)c1ccc2nc(-c3ccc(F)cc3)c(-c3cccc(Cl)c3)nc2c1        < 100 nM
 7  Cc1cc(C)n(-c2nc3ccc(C(=O)NCCCc4ncc[nH]4)cc3nc2-c2ccc(F)cc2)n1   100 to 500 nM
 8  O=C(NCCCc1ncc[nH]1)c1ccc2nc(OCC3CCCO3)c(-c3ccc(F)cc3)nc2c1 (centres unmarked)        < 100 nM
 9  O=C(NCCCc1ncc[nH]1)c1ccc2nc(OC3CCCC3)c(-c3ccc(F)cc3)nc2c1        < 100 nM
10  CC(C)Oc1nc2ccc(C(=O)NCc3ccc4nccn4c3)cc2nc1-c1ccc(Cl)s1   100 to 500 nM
11  O=C(NCCCc1ncc[nH]1)c1ccc2nc(-n3cncn3)c(-c3ccc(F)cc3)nc2c1  500 to 1000 nM
12  COc1cc(-c2nc3cc(C(=O)NCCCc4ncc[nH]4)ccc3nc2-c2ccc(F)cc2)c(F)cn1        < 100 nM
13  O=C(NCCCc1ncc[nH]1)c1ccc2nc(-n3cnc4ccccc43)c(-c3ccc(F)cc3)nc2c1   100 to 500 nM
14  CN1CCCC1CCOc1nc2ccc(C(=O)NCCCc3ncc[nH]3)cc2nc1-c1ccc(F)cc1 (centres unmarked)        < 100 nM
